Each recorded value in this set is attributed to PubChem BioAssay AID2060483.

The following compounds are shown together with reported IC50 values.
- Test system: K24384-001-R-PDC complex spheroids, viability;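 note: spheroids exposed to compounds for seven days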
- experiment-notes: Anticancer human tumor K24384-001-R-PDC patient-derived pancreatic adenocarcinoma cell line growth inhibition [GQUAD]
- experimental-conditions: curve of first compound; second compound 3.16 µM
attribute-measured: IC50 (nM)

>>> measured("CC1COCCN1c1cc(C2(S(C)(=N)=O)CC2)nc(-c2ccnc3[nH]ccc23)n1 (stereo not drawn) + Cc1[nH]c2ccc(F)cc2c1-c1nc2c3cccnc3c3ncccc3c2[nH]1")
2040
>>> measured("COc1ccc([C@@H](O)c2cc(-c3ncnc4cc(N5CCOCC5)ccc34)c(F)cc2Cl)nn1 + Cc1[nH]c2ccc(F)cc2c1-c1nc2c3cccnc3c3ncccc3c2[nH]1")
2100
